- TEST_TARGET: farnesyl protein transferase (FPT), H-ras (Homo sapiens, UniProt P49354+P49356)
- ASSAY_SUMMARY: FPT IC50 (H-ras), inhibition of farnesyl protein transferase, in vitro enzyme assay
- Format: biochemical
- ASSAY_SETUP: Table 3; H-ras; read-out: FPT IC50 (nM) (H-ras)
In this section, each of the compounds is paired with its reported IC50.
READOUT_LABEL: IC50 (nM)

COMPOUND | READOUT_LABEL | REPORTED_VALUE
CN(C)CCCC(=O)N1CCC(CC(=O)N2CCC(C3c4ncc(Br)cc4CCc4cc(Cl)cc(Br)c43)CC2)CC1 (single isomer, unassigned; (+)) | IC50 | 35
CN(C)CC(=O)N1CCC(CC(=O)N2CCC(C3c4ncc(Br)cc4CCc4cc(Cl)cc(Br)c43)CC2)CC1 (single isomer, unassigned; (+)) | IC50 | 2.5
N[C@@H](Cc1c[nH]cn1)C(=O)N1CCC(CC(=O)N2CCC([C@H]3c4ncc(Br)cc4CCc4cc(Cl)cc(Br)c43)CC2)CC1 | IC50 | 15

Provenance of the data: patent US6387905B2
